Origin of the recorded values: patent US5817490A

Experiment: enzyme screen for hydrolysis/methanolysis of butyl-KLG (HPLC of products and remaining substrate)
Assay type: biochemical
Conditions: Table 8: 38° C., 21 Hours, 8.6% Methanol-Water, 0.2 M MES
BuKLG (remaining substrate) by entry:
Report as a plain number; the unit ppm is understood.

molecule: Humicola lanuginosa Lipase: Humicola lanuginosa Lipase (protein, UniProt O59952 23-291, looked up) Lipase: EVSQDLFNQFNLFAQYSAAAYCGKNNDAPAGTNITCTGNACPEVEKADATFLYSFEDSGVGDVTGFLALDNTNKLIVLSFRGSRSIENWIGNLNFDLKEINDICSGCRGHDGFTSSWRSVADTLRQKVEDAVREHPDYRVVFTGHSLGGALATVAGADLRGNGYDIDVFSYGAPRVGNRAFAEFLTVQTGGTLYRITHTNDIVPRLPPREFGYSHSSPEYWIKSGTLVPVTRNDIVKIEGIDATGGNNQPNIPDIPAHLWYFGLIGTCL
BuKLG (remaining substrate), ppm: 7215

Query :: What measured BuKLG (remaining substrate) goes with Rhizoipus Delmar Lipase: Rhizoipus Delmar Lipase (protein, UniProt P61872 96-392, looked up) Lipase: DDNLVGGMTLDLPSDAPPISLSSSTNSASDGGKVVAATTAQIQEFTKYAGIAATAYCRSVVPGNKWDCVQCQKWVPDGKIITTFTSLLSDTNGYVLRSDKQKTIYLVFRGTNSFRSAITDIVFNFSDYKPVKGAKVHAGFLSSYEQVVNDYFPVVQEQLTAHPTYKVIVTGHSLGGAQALLAGMDLYQREPRLSPKNLSIFTVGGPRVGNPTFAYYVESTGIPFQRTVHKRDIVPHVPPQSFGFLHPGVESWIKSGTSNVQICTSEIETKDCSNSIVPFTSILDHLSYFDINEGSCL ?
Result :: 7097

Query :: What measured BuKLG (remaining substrate) goes with Rhizopus Niveus Lipase: Rhizopus Niveus Lipase (protein, UniProt P61871 96-392, looked up) Lipase: DDNLVGGMTLDLPSDAPPISLSSSTNSASDGGKVVAATTAQIQEFTKYAGIAATAYCRSVVPGNKWDCVQCQKWVPDGKIITTFTSLLSDTNGYVLRSDKQKTIYLVFRGTNSFRSAITDIVFNFSDYKPVKGAKVHAGFLSSYEQVVNDYFPVVQEQLTAHPTYKVIVTGHSLGGAQALLAGMDLYQREPRLSPKNLSIFTVGGPRVGNPTFAYYVESTGIPFQRTVHKRDIVPHVPPQSFGFLHPGVESWIKSGTSNVQICTSEIETKDCSNSIVPFTSILDHLSYFDINEGSCL ?
Result :: 7102
